So I've got a bunch of binders here, and I need their Phage binding ELISA signal, Anti-PSMA Fab values.
- TARGET_ENTITY: T1, PSMA Fab (006 PSMA Fab)
- T1 construct: also called Anti-PSMA Fab; anti-PSMA Fab
- METHOD_SUMMARY: phage ELISA; biotinylated PSMA Fab on neutravidin plate, clonal phage supernatant, anti-M13 HRP; blocking buffer alone
The reply should be a number, written without any unit.

Q: Kindly indicate its recorded Phage binding ELISA signal, Anti-PSMA Fab. Item: MVERCIPVWMCEGF [Phage-3241]
Result: 1.94

Q: Kindly indicate its recorded Phage binding ELISA signal, Anti-PSMA Fab. Item: MMHNCIPYWMCAGF [Phage-3249]
Result: 1.93

Q: Kindly indicate its recorded Phage binding ELISA signal, Anti-PSMA Fab. Item: ETSMCRPSWMCEGF [Phage-3242]
Result: 1.94

Q: Kindly indicate its recorded Phage binding ELISA signal, Anti-PSMA Fab. Item: GFRICEPEWMCVGF [Phage-3240]
Result: 1.94

Q: Kindly indicate its recorded Phage binding ELISA signal, Anti-PSMA Fab. Item: NVPVCIPDWMCVGF [Phage-3250]
Result: 1.93

Q: Kindly indicate its recorded Phage binding ELISA signal, Anti-PSMA Fab. Item: GVIACKPHWMCTGF [Phage-3251]
Result: 1.93

Q: Kindly indicate its recorded Phage binding ELISA signal, Anti-PSMA Fab. Item: GLALCKPAWMCQGF [Phage-3247]
Result: 1.93
